system: PSMA + PC-3 PiP and PSMA − PC-3 flu tumor xenografts; settings: 1 H post-injection
Provide the reported Biodistribution: spleen of each item.

State its Biodistribution: spleen on PSMA + PC-3 PiP and PSMA − PC-3 flu tumor xenografts: N=C(N)NCc1ccc(C(=O)NCCCCC(NC(=O)CCCCCCC(=O)NCCCC[C@H](NC(=O)N[C@@H](CCC(=O)O)C(=O)O)C(=O)O)C(=O)O)cc1[131I] (stereo partly drawn) [[^131I] labeled PSMA-904]
9.83 ± 3.28 % ID/g

Then O=C(O)CC[C@H](NC(=O)N[C@@H](CCCCNC(=O)c1ccc([131I])cc1)C(=O)O)C(=O)O [[^131I]YC-I-27] ?
21.2 ± 3.62 % ID/g

Then N=C(N)NCc1ccc(C(=O)NCCCCC(NC(=O)CCCCCCC(=O)NCCCC[C@H](NC(=O)N[C@@H](CCC(=O)O)C(=O)O)C(=O)O)C(=O)O)cc1[211At] (stereo partly drawn) [[^211At] labeled PSMA-904] ?
9.51 ± 2.76 % ID/g
